- TARGET_DESC: PDGF-BB (platelet-derived growth factor BB) (Homo sapiens)
- ASSAY_INFO: filter
- CONDITION_LABEL: NapdU at P; 2'-OMe 2
READOUT_LABEL: pKd
Remember, pKd is on a log scale: it is -log10 of the molar concentration.

The sequence identified as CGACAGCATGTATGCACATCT [5169-4_39] registered its pKd at 10.24

====

- TARGET_DESC: PDGF-BB (platelet-derived growth factor BB) (Homo sapiens)
- ASSAY_INFO: filter
- CONDITION_LABEL: NapdU at P
Kd class ranges: lower range = under 0.02 nM, middle range = from 0.02 nM up to 0.05 nM, upper range = 0.05 nM and over

Determine which band this sequence sits in: CGACAGCATGTATGCACATCTAGAG [5169-4_22] lower range

Class (by measured Kd) for GACAGCATGTATGCACATCTAGAG [5169-4_32] upper range

Hi there! Could you help me figure out the category for CGACAGCATGTATGCACATCTAGAGGC [5169-4_20] please? lower range

Would you mind sorting CGACAGCATGTATGCACATCTAGAGGCTACCCAGTGAA [5169-4_12] into the appropriate category? upper range

Input CGACAGCATGTATGCACATCTAGAGGCTA [5169-4_18] ; output its category middle range

The entry to classify is GACAGCATGTATGCACATCTAGA [5169-4_27] ; which class holds it? upper range

Band of GACAGCATGTATGCACATCTA [5169-4_29] ? upper range

Class label required: CGACAGCATGTATGCACATCTAGAGGCTACCCAGTG [5169-4_16] lower range

Class (by measured Kd) for CGACAGCATGTATGCACATCTAGAGGCTACCCAGTGA [5169-4_15] lower range

Tag the class for CGACAGCATGTATGCACATCTAGAGGCTACCCAGTGAATGAGGA [5169-4_5] middle range

Class for CTGCCTCGACAGCATGTATGCACATCTAGAGGCTACCCAGTGAATGA [5169-4_7] ? lower range

Returns: class label. Input: CGACAGCATGTATGCACATCTAGAGG [5169-4_21] middle range

Textbook exercise: identify the category of the sequence given here, CGACAGCATGTATGCACATCTAG [5169-4_24] , according to its measured value. middle range

Using the reported Kd, which band applies to GACAGCATGTATGCACATCTAGAGGCTACCCAGTGAA [5169-4_13] ? middle range

Which bin, given its Kd, does CTGCCTCGACAGCATGTATGCACATCTAGAGGCTACCC [5169-4_10] occupy? upper range

Lab log: CTGCCTCGACAGCATGTATGCACATCTAGAGGCTA [5169-4_11] — assign Kd category upper range

For this sequence, which bin applies? GACAGCATGTATGCACATCTAG [5169-4_28] middle range

Hello team, could you let me know which band the following sequence falls into: CTGCCTCGACAGCATGTATGCACATCTAGAGGCTACCCAGTGAA [5169-4_8] middle range

====

- Tested on: VEGF-121 (Homo sapiens), P15692-9
- Sequence: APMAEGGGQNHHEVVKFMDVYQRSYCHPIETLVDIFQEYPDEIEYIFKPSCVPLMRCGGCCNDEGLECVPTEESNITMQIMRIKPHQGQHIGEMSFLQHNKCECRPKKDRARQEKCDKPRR
- ASSAY_INFO: filter
- CONDITION_LABEL: P=Nap-dU; C3 spacer at 50
READOUT_LABEL: pKd
Remember the convention: pKd equals -log10 of concentration in molar.

Notebook: CCCTCCATCAGCCGTTCAAGTGCTTGTAGGATTTAAATGGAATTGGAGG [4867-15_73] , pKd read as 9.77

====

- TARGET_DESC: PDGF-BB (platelet-derived growth factor BB) (Homo sapiens) (UniProt P01127)
- Sequence (P01127 82-190): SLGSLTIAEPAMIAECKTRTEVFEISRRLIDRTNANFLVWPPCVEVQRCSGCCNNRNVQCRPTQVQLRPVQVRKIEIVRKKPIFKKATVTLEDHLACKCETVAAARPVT
- ASSAY_INFO: filter
- CONDITION_LABEL: NapdU at P; C3 spacer at 5
READOUT_LABEL: Kd (nM)
Record the value in nM, omitting the unit from your answer.

// Kd lookup, sequence = CGACGCATGTATGCACATCT [5169-4_63] , result: 29

====

- System: VEGF-121 (Homo sapiens), P15692-9
- Sequence: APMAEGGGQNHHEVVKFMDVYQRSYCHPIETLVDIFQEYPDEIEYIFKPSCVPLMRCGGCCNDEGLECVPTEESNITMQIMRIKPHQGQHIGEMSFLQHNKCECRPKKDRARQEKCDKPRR
- ASSAY_INFO: filter
- CONDITION_LABEL: as 4867-31_192; PS 3' of 25; 3' inverted dT
READOUT_LABEL: Kd (pM)
Field format: number, assumed pM, no unit text.

Item: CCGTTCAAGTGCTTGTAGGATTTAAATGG [4867-31_427] | Kd: 8.1

====

- TARGET_DESC: PDGF-BB (platelet-derived growth factor BB) (Homo sapiens)
- ASSAY_INFO: filter
- CONDITION_LABEL: Bn-dU, MBn-dU, Nap-dU, 2'-OMe, C3; 5 Heg between parts
READOUT_LABEL: pKd
pKd field: float, defined as -log10 of concentration (mol/L).

Let me check: TTACGTTACCGCGTTTATAGCGCCGTTCAAGTGCTTGTAGGATTTAAATGG [4149-8_416] , system PDGF-BB (platelet-derived growth factor BB) (Homo sapiens), measured pKd is 11.05

====

- Tested on: VEGF-121 (Homo sapiens), P15692-9
- Sequence: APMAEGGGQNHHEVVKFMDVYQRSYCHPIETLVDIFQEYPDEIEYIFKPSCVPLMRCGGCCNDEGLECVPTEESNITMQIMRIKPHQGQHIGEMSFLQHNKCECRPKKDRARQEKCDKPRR
- ASSAY_INFO: cell_activity
- CONDITION_LABEL: NapdU at P; VEGFR2 phosphorylation, HUVEC
READOUT_LABEL: pIC50
Lab note: report pIC50 as minus log10 of the concentration in molar units, number only.

Just so you know, measured pIC50 for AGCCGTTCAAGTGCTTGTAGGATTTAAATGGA [4867-31_43] came out at 8.66

====

- Tested on: VEGF-121 (Homo sapiens), P15692-9
- Sequence: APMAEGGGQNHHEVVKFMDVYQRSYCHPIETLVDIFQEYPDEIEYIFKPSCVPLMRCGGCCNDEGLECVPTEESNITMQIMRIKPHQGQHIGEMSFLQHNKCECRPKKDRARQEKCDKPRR
- ASSAY_INFO: filter
- CONDITION_LABEL: as 4867-31_192; PS 3' of 1; 3' inverted dT
READOUT_LABEL: pKd
Note on units: pKd is unitless, being -log10 of a concentration expressed in mol/L.

pKd for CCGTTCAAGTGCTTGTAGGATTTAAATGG [4867-31_409] is 10.96

====

- System: VEGF-165 (Homo sapiens), P15692-4
- Sequence: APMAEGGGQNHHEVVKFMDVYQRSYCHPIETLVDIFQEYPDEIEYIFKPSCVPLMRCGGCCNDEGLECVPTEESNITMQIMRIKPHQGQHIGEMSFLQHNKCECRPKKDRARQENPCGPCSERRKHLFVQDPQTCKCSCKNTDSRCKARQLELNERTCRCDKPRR
- ASSAY_INFO: filter
- CONDITION_LABEL: all P are NapdU, rest DNA; SB18T, 37 C
READOUT_LABEL: pKd
Scale: negative log10 of molar concentration, which is what pKd denotes.

Record CAGCCGTTCAAGTGCTTGTAGGATTTAAAT [4867-31_46] has VEGF-165 (Homo sapiens), P15692-4 pKd equal to 8.23

Record AGCCGTTCAAGTGCTTGTAGGATTTAAATGG [4867-31_51] / VEGF-165 (Homo sapiens), P15692-4, pKd recorded as 9.96

Form: item CAGCCGTTCAAGTGCTTGTAGGATTTAAATGGA [4867-31_42] ; test system VEGF-165 (Homo sapiens), P15692-4; pKd: 10.15

====

- TARGET_DESC: PDGF-BB (platelet-derived growth factor BB) (Homo sapiens) (UniProt P01127)
- ASSAY_INFO: filter
- CONDITION_LABEL: as 4149-8_379; 2'-OMe 15; iBudU 16
READOUT_LABEL: pKd
// returns pKd (minus log10 of molar concentration), number only

sequence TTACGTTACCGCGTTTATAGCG [4149-8_420] , pKd observed: 8.85

====

- Test system: VEGF-121 (Homo sapiens), P15692-9
- Sequence: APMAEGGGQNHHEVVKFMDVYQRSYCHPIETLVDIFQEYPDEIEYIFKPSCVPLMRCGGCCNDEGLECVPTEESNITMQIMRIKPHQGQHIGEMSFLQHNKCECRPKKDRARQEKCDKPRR
- ASSAY_INFO: filter
- CONDITION_LABEL: NapdU at P
One threshold, 0.8 nM, splits the recorded Kd values: lower ones are Yes, equal or higher ones are No.

Does the reported Kd of the following sequence sit strictly below 0.8 nM? AGCCGTTCAAGTGCTTGTAGGATTTAAATG [4867-31_52] No

Is Kd strictly under 0.8 nM for the entry CGTTCAAGTGCTTGTAGGATTTAAATGGA [4867-31_60] ? No

Does the reported Kd of TCAATCAGCCGTTCAAGTGCTTGTAGGATTTAAAT [4867-31_25] stay below 0.8 nM? No

In the record for CAGCCGTTCAAGTGCTTGTAGGATTTAAATGG [4867-31_44] , is Kd less than 0.8 nM? Yes

Quick check: Kd of AGCCGTTCAAGTGCTTGTAGGATTTAAAT [4867-31_53] under 0.8 nM? No

Please check: Kd for CCGTTCAAGTGCTTGTAGGATTTAAATGGA [4867-31_59] , strictly under 0.8 nM or not? Yes

Would you kindly verify if Kd of GCCGTTCAAGTGCTTGTAGGATTTAAATGG [4867-31_144] is strictly less than 0.8 nM? Yes

Threshold test, Kd < 0.8 nM: GCCGTTCAAGTGCTTGTAGGATTTAAATGGA [4867-31_58] Yes

Consider the sequence GTTCAAGTGCTTGTAGGATTTAAATGGA [4867-31_61] . Is its Kd strictly less than 0.8 nM? No

Say whether its Kd is strictly beneath 0.8 nM. Entry: TCAATCAGCCGTTCAAGTGCTTGTAGGATTTAAATG [4867-31_24] No

Hello, is Kd of the following sequence strictly smaller than 0.8 nM? TCAATCAGCCGTTCAAGTGCTTGTAGGATTTAAATGG [4867-31_23] No

Hello, I'm reviewing records and need to know if Kd of CAGCCGTTCAAGTGCTTGTAGGATTTAAATG [4867-31_45] is below 0.8 nM. Could you check? No

These measurements were taken from patent US20160177307.
